- PROTOCOL_DESCRIPTION: pH stability tests
- Format: physicochemical
- CONDITION_INFO: pH 5.0, 1 day
MEASURED_PROPERTY: pH stability

Study these solved cases before continuing.
>>> print(df.to_string())
                                   molecule  result
0  COCCOCNCCO/N=C(\C)CC(=O)c1ccccc1 [drawing 139]     <1%
1       COCCOC(=O)NCCO/N=C(\C)C(=O)c1ccccc1     <1%
2  COCCOC(=O)NCCO/N=C(\C)C(=O)Nc1ccccc1 [drawing 138]     <1%

Short answer for COCCOCNCCO/N=C(\C)CC(=O)c1ccccc1 [drawing 135] : pH stability was <1%

Short answer for COCCOC(=O)NCCO/N=C1\C(=O)Nc2ccccc21 : pH stability was <1%

Short answer for COCCOC(=O)NCCO/N=C(\C)CNC(=O)c1ccccc1 : pH stability was 3%

Short answer for COCCOC(=O)NCCO/N=C(\C)COc1ccccc1 : pH stability was 5%

Short answer for COCCOC(=O)NCCO/N=C(\C)C(=O)Nc1ccccc1 [drawing 134] : pH stability was <1%
